target: HRgpA-6H (Porphyromonas gingivalis) (UniProt P28784); assay: ELISA, FASEBA Fab on coated HRgpA-6H
measured-attribute: OD450nm
Just the number.

Answered examples (2):
| binder | OD450nm |
| --- | --- |
| KB001 mouse Fab VL S57E (Fab, V domains shown) VH: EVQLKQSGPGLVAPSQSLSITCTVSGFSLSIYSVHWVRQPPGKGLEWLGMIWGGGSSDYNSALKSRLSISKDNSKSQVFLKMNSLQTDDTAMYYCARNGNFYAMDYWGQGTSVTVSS VL: QIVLTQSPAIMSASLGERVTMTCTASSSVSSSFLHWYQQKPGSSPQLWIYSTSNLAEGVPARFSGSGSGTSYSLTISSMEAEDAATYYCHQYHHSPYIYTFGGGTKLEIK | 0.843 |
| KB001 mouse Fab VL S53K (Fab, V domains shown) VH: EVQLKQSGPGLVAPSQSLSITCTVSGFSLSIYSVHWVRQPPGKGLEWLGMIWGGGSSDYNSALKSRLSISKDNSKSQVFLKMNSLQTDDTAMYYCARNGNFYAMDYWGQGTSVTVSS VL: QIVLTQSPAIMSASLGERVTMTCTASSSVSSSFLHWYQQKPGSSPQLWIYSTKNLASGVPARFSGSGSGTSYSLTISSMEAEDAATYYCHQYHHSPYIYTFGGGTKLEIK | 0.841 |

Proceeding to the next binder to report its OD450nm.
The binder KB001 mouse Fab VL S57N (Fab, V domains shown) VH: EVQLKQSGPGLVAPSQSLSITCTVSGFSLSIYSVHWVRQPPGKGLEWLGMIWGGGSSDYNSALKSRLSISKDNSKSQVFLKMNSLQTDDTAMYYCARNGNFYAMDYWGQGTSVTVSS VL: QIVLTQSPAIMSASLGERVTMTCTASSSVSSSFLHWYQQKPGSSPQLWIYSTSNLANGVPARFSGSGSGTSYSLTISSMEAEDAATYYCHQYHHSPYIYTFGGGTKLEIK showed OD450nm equal to 0.857
